Ki for Kappa-type opioid receptor (Rattus norvegicus) - collated from the literature.
Quantity Measured: Ki

>>> val("Cc1nccn1CC1CCc2c(c3ccccc3n2C)C1=O (stereo not given)")
"> 10000 nM"
>>> val("CN(C)Cc1nnc(-c2ccc(C(C)(C)C)cc2)n1-c1cccc(O)c1")
"> 10000 nM"
>>> val("Cc1ccc(S(=O)(=O)N2CCc3cc(C(=O)NCCN(Cc4ccccc4)C(C)(C)C)ccc3C2)cc1")
"37 nM"
>>> val("Cc1ccc2nc(NC(=O)c3ccc(Cl)cc3)nc(NC3CCCCC3NC(=N)N)c2c1 (racemic)")
"1200 nM"
>>> val("COc1ccccc1S(=O)(=O)Nc1ccc(C)cc1Oc1ccc(C(=N)N)cc1")
"1430 nM"
